Tested on: HS 578T breast
Assay Info: NCI tumour cell line growth inhibition, 48 h
// TGI lookup, one value per entry
# output: bare number, implied unit µM

Compound	TGI / µM
COc1ccc(NC2=NCCO2)c2c1CCCC2	91.6
CCOC(=O)C1=C(Cl)c2cccnc2C1=O	77
O=[N+]([O-])c1cc(Cl)c(Cl)cc1[N+](=O)[O-]	72.3
CC1(C)CN(c2cc(C(F)(F)F)cc3cncn23)CCC12NC(=O)NC2=O (configuration not stated)	90.1

Form: compound = CC(C)(C)c1ccc(C(C)(C)C)c(N2C(=O)[C@@H]3[C@@H]4C=C[C@@H](C4)[C@]3(C)C2=O)c1 ; TGI = 59.9

Form: compound = C=C1C(=O)O[C@H]2[C@H]1CC/C(COC(=O)/C=C/C(=O)NCc1ccc(Cn3c(=O)sn(-c4ccccc4)c3=O)cc1)=C\CC[C@@]1(C)O[C@@H]21 ; TGI = 35.4

Form: compound = O=C(c1ccc(Cl)cc1)c1no[n+]([O-])c1C(=O)c1ccc(Cl)cc1 ; TGI = 68.2

Form: compound = [N-]=[N+]=Nc1c(Cc2ccccc2)c(=O)oc2ccccc12 ; TGI = 61.3

Form: compound = CC(=O)O[C@H]1C(=O)[C@@]2(C)[C@H]([C@H](OC(=O)c3ccccc3)[C@]3(O)C[C@H](OC(=O)[C@H](O)[C@@H](NC(=O)c4ccccc4)c4ccccc4C)C(C)=C1C3(C)C)[C@]1(OC(C)=O)CO[C@@H]1C[C@@H]2O ; TGI = 1.73
